Experiment: Pharmacokinetics of Compound 1 in combination with MK-3475 in subjects with various cancers
Format: in vivo, human
Conditions: human, plasma, oral, 100 mg, Diagnosis RCC, first dose, individual values of 2 subjects; read-out: tmax
Experimental: The subjects were not limited to a specific cancers and study include subjects with various cancers. […] One treatment cycle consisted of 21 days. […] The RP2D was selected from the evaluated safety expansions. […] Pharmacokinetic samples were obtained at the visits of Cycle 1 Day 1, Cycle 1 Day 8 and Cycle 2 Day 1. […] The exact date and time of the PK blood draws were recorded in the eCRF along with the date and time of the last dose of study drug and details of the last meal preceding the blood draw. […]
value-type: tmax (h)
Give bare numbers, in h.

QUERY: Reported tmax for NS(=O)(=O)NCCNc1nonc1C(=NO)Nc1ccc(F)c(Br)c1 : what is it?
RESULT: 3

====

Assay: Dose-escalation study of Compound 1 pharmacokinetics in subjects with advanced malignancies (tablets of Formulations 1 and/or 3, fasted; food effect cohort)
Assay type: in vivo, human
Details: human, plasma, oral, 50 mg, 50 mg QD, steady state, geometric mean; read-out: AUC0-τ
value-type: AUC (µM·h)
One number for each entry, in µM·h.

QUERY: Please give the measured AUC for this compound: NS(=O)(=O)NCCNc1nonc1C(=NO)Nc1ccc(F)c(Br)c1
RESULT: 1.56

====

Assay: Pharmacokinetics of Compound 1 in combination with MK-3475 in subjects with various cancers
Type: in vivo, human
Details: by dose, 25 mg, first dose, mean ± SD
value-type: Cmax
Output should be the measured figure followed by the unit it is expressed in.

QUERY: Tell me the measured Cmax of NS(=O)(=O)NCCNc1nonc1C(=NO)Nc1ccc(F)c(Br)c1 [Compound 1] , please.
RESULT: 231 nM

====

Assay: Dose-escalation study of Compound 1 pharmacokinetics in subjects with advanced malignancies (tablets of Formulations 1 and/or 3, fasted; food effect cohort)
Type: in vivo, human
Conditions: human, plasma, oral, 600 mg, 600 mg BID, Fed (high-fat meal), geometric mean
value-type: Cmax (µM)
One number for each entry, in µM.

QUERY: For the compound shown here, NS(=O)(=O)NCCNc1nonc1C(=NO)Nc1ccc(F)c(Br)c1 , give the reported Cmax.
RESULT: 4.03

====

Test: Dose-escalation study of Compound 1 pharmacokinetics in subjects with advanced malignancies (tablets of Formulations 1 and/or 3, fasted; food effect cohort)
Type: in vivo, human
Settings: human, plasma, oral, 700 mg, 700 mg BID, steady state, geometric mean; read-out: t1/2 (converted)
value-type: half-life (h)
Numbers only, in h.

QUERY: Please give the measured half-life for this compound: NS(=O)(=O)NCCNc1nonc1C(=NO)Nc1ccc(F)c(Br)c1 [Compound 1]
RESULT: 2.9

====

Experiment: Pharmacokinetics of Compound 1 in combination with MK-3475 in subjects with various cancers
Type: in vivo, human
Details: human, plasma, oral, 300 mg, Cohort 6, 300 mg, first dose, mean ± SD
Procedure: The subjects were not limited to a specific cancers and study include subjects with various cancers. […] One treatment cycle consisted of 21 days. […] The RP2D was selected from the evaluated safety expansions. […] Pharmacokinetic samples were obtained at the visits of Cycle 1 Day 1, Cycle 1 Day 8 and Cycle 2 Day 1. […] The exact date and time of the PK blood draws were recorded in the eCRF along with the date and time of the last dose of study drug and details of the last meal preceding the blood draw. […]
value-type: Cmax (nM)
One number for each entry, in nM.

QUERY: For the molecule shown here, NS(=O)(=O)NCCNc1nonc1C(=NO)Nc1ccc(F)c(Br)c1 [Compound 1] , give the reported Cmax.
RESULT: 2220
